tested on: Escherichia coli TOP10; assay: shrunken log2 fold change of peptide-encoding DNA abundance (4.5 h post-induction vs induction); higher = less antimicrobial activity (less host growth inhibition); conditions: time post-induction: 4.5 h; library: site-saturation at positions 5, 18, 19, 20
Entries and their measured shrunken log2 fold change follow.
// return just the number, without any unit appended

The following sequences have reported results that may help.
macromolecule-sequence: RRIRMRPPRLPRPRPRPPYKPRP
shrunken log2 fold change: -0.163

macromolecule-sequence: RRIRSRPPRLPRPRPRPSRQPRP
shrunken log2 fold change: -0.447

macromolecule-sequence: RRIRERPPRLPRPRPRPRVRPRP
shrunken log2 fold change: 0.211

Q: Data request, read-out shrunken log2 fold change, for RRIRVRPPRLPRPRPRPPAKPRP
Ans: 0.603

Q: Data request, read-out shrunken log2 fold change, for RRIRVRPPRLPRPRPRPTFKPRP
Ans: -0.152

Q: Data request, read-out shrunken log2 fold change, for RRIRMRPPRLPRPRPRPGWCPRP
Ans: 0.181

Q: Data request, read-out shrunken log2 fold change, for RRIRSRPPRLPRPRPRPQSWPRP
Ans: 0.722

Q: Data request, read-out shrunken log2 fold change, for RRIRNRPPRLPRPRPRPMVAPRP
Ans: 0.0624

Q: Data request, read-out shrunken log2 fold change, for RRIRKRPPRLPRPRPRPDEPPRP
Ans: 2.05

----------
test system: Escherichia coli TOP10; experiment: shrunken log2 fold change of peptide-encoding DNA abundance (4.5 h post-induction vs induction); higher = less antimicrobial activity (less host growth inhibition); details: time post-induction: 4.5 h; library: site-saturation at positions 5, 18, 19, 20
Parameter threshold = 0.1. Response is class 1 when shrunken log2 fold change meets or exceeds it, else class 0.

macromolecule-sequence: RRIRARPPRLPRPRPRPLVRPRP
assay-system: Escherichia coli TOP10
assigned-label: class 1

Q: Could you verify whether the entry RRIRCRPPRLPRPRPRPELCPRP shows shrunken log2 fold change of no less than 0.1?
Ans: class 1

Q: Could you verify whether the entry RRIRARPPRLPRPRPRPPHWPRP shows shrunken log2 fold change of no less than 0.1?
Ans: class 1

Q: Could you verify whether the entry RRIRTRPPRLPRPRPRPMDSPRP shows shrunken log2 fold change of no less than 0.1?
Ans: class 0

Q: Could you verify whether the entry RRIRTRPPRLPRPRPRPIAVPRP shows shrunken log2 fold change of no less than 0.1?
Ans: class 0

Q: Could you verify whether the entry RRIRDRPPRLPRPRPRPQCMPRP shows shrunken log2 fold change of no less than 0.1?
Ans: class 0

Q: Could you verify whether the entry RRIRSRPPRLPRPRPRPAKTPRP shows shrunken log2 fold change of no less than 0.1?
Ans: class 1

Q: Could you verify whether the entry RRIRMRPPRLPRPRPRPERVPRP shows shrunken log2 fold change of no less than 0.1?
Ans: class 1

Q: Could you verify whether the entry RRIRNRPPRLPRPRPRPNQIPRP shows shrunken log2 fold change of no less than 0.1?
Ans: class 0

Q: Could you verify whether the entry RRIRKRPPRLPRPRPRPNGNPRP shows shrunken log2 fold change of no less than 0.1?
Ans: class 0

Q: Could you verify whether the entry RRIRDRPPRLPRPRPRPWHLPRP shows shrunken log2 fold change of no less than 0.1?
Ans: class 0

Q: Could you verify whether the entry RRIRTRPPRLPRPRPRPPSHPRP shows shrunken log2 fold change of no less than 0.1?
Ans: class 0

Q: Could you verify whether the entry RRIRWRPPRLPRPRPRPFQGPRP shows shrunken log2 fold change of no less than 0.1?
Ans: class 0

Q: Could you verify whether the entry RRIRTRPPRLPRPRPRPYQFPRP shows shrunken log2 fold change of no less than 0.1?
Ans: class 0

Q: Could you verify whether the entry RRIRVRPPRLPRPRPRPWDSPRP shows shrunken log2 fold change of no less than 0.1?
Ans: class 0

Q: Could you verify whether the entry RRIRIRPPRLPRPRPRPPVEPRP shows shrunken log2 fold change of no less than 0.1?
Ans: class 0

Q: Could you verify whether the entry RRIRVRPPRLPRPRPRPSADPRP shows shrunken log2 fold change of no less than 0.1?
Ans: class 0

Q: Could you verify whether the entry RRIRYRPPRLPRPRPRPYMIPRP shows shrunken log2 fold change of no less than 0.1?
Ans: class 0

Q: Could you verify whether the entry RRIRVRPPRLPRPRPRPGSTPRP shows shrunken log2 fold change of no less than 0.1?
Ans: class 0

Q: Could you verify whether the entry RRIRFRPPRLPRPRPRPVMPPRP shows shrunken log2 fold change of no less than 0.1?
Ans: class 0

Q: Could you verify whether the entry RRIRDRPPRLPRPRPRPPQEPRP shows shrunken log2 fold change of no less than 0.1?
Ans: class 1

Q: Could you verify whether the entry RRIRPRPPRLPRPRPRPKLRPRP shows shrunken log2 fold change of no less than 0.1?
Ans: class 1

----------
system: Escherichia coli TOP10; assay: shrunken log2 fold change of peptide-encoding DNA abundance (4.5 h post-induction vs induction); higher = less antimicrobial activity (less host growth inhibition); conditions: time post-induction: 4.5 h; library: site-saturation at positions 5, 18, 19, 20
Parameter threshold = -0.07. Response is YES when shrunken log2 fold change meets or exceeds it, else NO.

Worked examples, 2 sequences total:
macromolecule-sequence: RRIRLRPPRLPRPRPRPPFIPRP
assigned-label: NO

macromolecule-sequence: RRIRGRPPRLPRPRPRPFFKPRP
assigned-label: YES

Q: Could you verify whether the entry RRIRNRPPRLPRPRPRPNGVPRP shows shrunken log2 fold change of no less than -0.07?
Ans: YES

Q: Could you verify whether the entry RRIRHRPPRLPRPRPRPHCHPRP shows shrunken log2 fold change of no less than -0.07?
Ans: NO

Q: Could you verify whether the entry RRIRQRPPRLPRPRPRPCQYPRP shows shrunken log2 fold change of no less than -0.07?
Ans: YES

Q: Could you verify whether the entry RRIRGRPPRLPRPRPRPFQEPRP shows shrunken log2 fold change of no less than -0.07?
Ans: YES

Q: Could you verify whether the entry RRIRARPPRLPRPRPRPHTMPRP shows shrunken log2 fold change of no less than -0.07?
Ans: NO

Q: Could you verify whether the entry RRIRWRPPRLPRPRPRPKELPRP shows shrunken log2 fold change of no less than -0.07?
Ans: YES

Q: Could you verify whether the entry RRIRLRPPRLPRPRPRPMCDPRP shows shrunken log2 fold change of no less than -0.07?
Ans: NO

Q: Could you verify whether the entry RRIRGRPPRLPRPRPRPKLMPRP shows shrunken log2 fold change of no less than -0.07?
Ans: YES

Q: Could you verify whether the entry RRIRMRPPRLPRPRPRPPLSPRP shows shrunken log2 fold change of no less than -0.07?
Ans: YES

Q: Could you verify whether the entry RRIRERPPRLPRPRPRPHRLPRP shows shrunken log2 fold change of no less than -0.07?
Ans: NO

Q: Could you verify whether the entry RRIRPRPPRLPRPRPRPFEWPRP shows shrunken log2 fold change of no less than -0.07?
Ans: NO

Q: Could you verify whether the entry RRIRFRPPRLPRPRPRPPTDPRP shows shrunken log2 fold change of no less than -0.07?
Ans: YES

Q: Could you verify whether the entry RRIRARPPRLPRPRPRPRELPRP shows shrunken log2 fold change of no less than -0.07?
Ans: YES

----------
system: Escherichia coli TOP10; experiment: shrunken log2 fold change of peptide-encoding DNA abundance (4.5 h post-induction vs induction); higher = less antimicrobial activity (less host growth inhibition); settings: time post-induction: 4.5 h; library: site-saturation at positions 5, 18, 19, 20
Parameter threshold = -0.1. Response is Condition met when shrunken log2 fold change meets or exceeds it, else Condition not met.

Worked examples, 5 sequences total:
macromolecule-sequence: RRIRQRPPRLPRPRPRPHWKPRP
assigned-label: Condition met

macromolecule-sequence: RRIRIRPPRLPRPRPRPRQNPRP
assigned-label: Condition not met

macromolecule-sequence: RRIRMRPPRLPRPRPRPFWGPRP
assigned-label: Condition not met

macromolecule-sequence: RRIRARPPRLPRPRPRPHKFPRP
assigned-label: Condition met

macromolecule-sequence: RRIRHRPPRLPRPRPRPYVKPRP
assigned-label: Condition not met

Now let's try a different one.
Q: Could you verify whether the entry RRIRMRPPRLPRPRPRPWAPPRP shows shrunken log2 fold change of no less than -0.1?
Ans: Condition met

----------
Entries and their measured shrunken log2 fold change follow.
test system: Escherichia coli TOP10; assay: shrunken log2 fold change of peptide-encoding DNA abundance (4.5 h post-induction vs induction); higher = less antimicrobial activity (less host growth inhibition); conditions: time post-induction: 4.5 h; library: site-saturation at positions 5, 18, 19, 20
// return just the number, without any unit appended

macromolecule-sequence: RRIRERPPRLPRPRPRPQGVPRP
shrunken log2 fold change: 0.0697
--
macromolecule-sequence: RRIRPRPPRLPRPRPRPCNYPRP
shrunken log2 fold change: -0.152

Next sequence, please.
Q: Find the measured shrunken log2 fold change: item RRIRVRPPRLPRPRPRPGEFPRP , target or system Escherichia coli TOP10.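 Note: peptides expressed intracellularly from a pBAD plasmid library in pooled LB shake-flask culture, induced with 0.3% L-arabinose, DNA abundance read by NGS, three biological replicates, DESeq2 with apeglm shrinkage.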
Ans: 0.119

The reported measurements were obtained from the supplement of paper PMC9112550.
